Attribute: Experimental Binding Free Energy ΔGexp
Target: hGSTP1-1 (Homo sapiens, UniProt P09211)
Construct: made in house; host or cells: E. coli BL21 (DE3)
Sequence (P09211 2-210 limits assumed): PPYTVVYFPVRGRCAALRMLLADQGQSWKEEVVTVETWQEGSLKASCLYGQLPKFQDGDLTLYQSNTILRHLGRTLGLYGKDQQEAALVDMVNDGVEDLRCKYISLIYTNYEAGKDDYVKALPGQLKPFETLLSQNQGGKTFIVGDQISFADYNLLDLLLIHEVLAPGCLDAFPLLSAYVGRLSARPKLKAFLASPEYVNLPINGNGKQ
Assay: Kinetic inhibition analysis of hGSTP1-1 (Lineweaver-Burk)
Assay type: biochemical
Details: calculated from Ki; variable substrate GSH
Source text: The computer program GraphPad Prism version 8 (GraphPad Prism Software, Inc., San Diego, CA, USA) was used for producing kinetic graphs and determining apparent kinetic parameters/constants and IC50 values. […]
measure: Experimental Binding Free Energy ΔGexp (kcal/mol)

>  <compound>
O=C(C=Cc1ccc(O)cc1)C=Cc1ccc(O)cc1 [DM96]

>  <measure>
Experimental Binding Free Energy ΔGexp

>  <scale.unit>
kcal/mol

>  <meas.value>
-7.71

$$$$
>  <compound>
COc1cc(/C=C/C(O)=C/C(=O)/C=C/c2ccc(O)cc2)ccc1O [DMC, Demethoxycurcumin]

>  <measure>
Experimental Binding Free Energy ΔGexp

>  <scale.unit>
kcal/mol

>  <meas.value>
-5.91

$$$$

====

target: hGSTP1-1 (Homo sapiens); construct: made in house; host or cells: E. coli BL21 (DE3); test: Kinetic inhibition analysis of hGSTP1-1 (Lineweaver-Burk); type: biochemical; conditions: calculated from Ki; variable substrate CDNB
Attribute: Experimental Binding Free Energy ΔGexp

>  <compound>
O=C(C=Cc1ccc(O)cc1)C=Cc1ccc(O)cc1 [DM96]

>  <system>
hGSTP1-1 (Homo sapiens)

>  <scale.unit>
kcal/mol

>  <Experimental Binding Free Energy ΔGexp>
-7.71

$$$$
>  <compound>
COc1cc(/C=C/C(O)=C/C(=O)/C=C/c2ccc(O)cc2)ccc1O [DMC, Demethoxycurcumin]

>  <system>
hGSTP1-1 (Homo sapiens)

>  <scale.unit>
kcal/mol

>  <Experimental Binding Free Energy ΔGexp>
-7.66

$$$$

====

target: hGSTP1-1 (Homo sapiens, UniProt P09211); construct: made in house; host or cells: E. coli BL21 (DE3); test: Kinetic inhibition analysis of hGSTP1-1 (Lineweaver-Burk); assay type: biochemical; conditions: variable substrate GSH; binding to free enzyme; read-out: Inhibition Constant Ki
Attribute: Ki

>  <smiles.code>
COc1cc(/C=C/C(O)=C/C(=O)/C=C/c2ccc(O)cc2)ccc1O

>  <Ki>
68 µM

$$$$
>  <smiles.code>
O=C(/C=C/c1ccc(F)cc1)/C=C/c1ccc(F)cc1

>  <Ki>
35.1 µM

$$$$
>  <smiles.code>
O=C1C(=Cc2ccc(O)c(O)c2)CCCC1=Cc1ccc(O)c(O)c1

>  <Ki>
5.79 µM

$$$$
>  <smiles.code>
O=C(C=Cc1ccc(O)cc1)C=Cc1ccc(O)cc1

>  <Ki>
3.69 µM

$$$$

====

molecular target: hGSTP1-1 (Homo sapiens, UniProt P09211); construct: made in house; host or cells: E. coli BL21 (DE3); test: Kinetic inhibition analysis of hGSTP1-1 (Lineweaver-Burk); format: biochemical; details: variable substrate CDNB; binding to free enzyme; read-out: Inhibition Constant Ki

>  <smiles.code>
O=C(/C=C/c1ccc(F)cc1)/C=C/c1ccc(F)cc1

>  <Ki>
20.1 µM

$$$$
>  <smiles.code>
COc1cc(/C=C/C(O)=C/C(=O)/C=C/c2ccc(O)cc2)ccc1O

>  <Ki>
3.99 µM

$$$$
>  <smiles.code>
O=C(C=Cc1ccc(O)cc1)C=Cc1ccc(O)cc1

>  <Ki>
3.67 µM

$$$$
>  <smiles.code>
O=C1C(=Cc2ccc(O)c(O)c2)CCCC1=Cc1ccc(O)c(O)c1

>  <Ki>
9.55 µM

$$$$

Reference for the values: paper PMC9854774
